- Tested on: CT26 cells
- METHOD: Fluorescence detection of cell surface CRT
- Type: cell-based, murine
PROPERTY_NAME: CRT exposure at the cell surface

>>> reported_result("O=C(/C=C/c1ccccc1)NC(NC(=S)Nc1cccc2cccnc12)C(Cl)(Cl)Cl (centres unmarked) [salubrinal]")
"efficiently induced"
>>> reported_result("COc1cc([C@@H]2c3cc4c(cc3[C@@H](O[C@@H]3O[C@@H]5CO[C@@H](C)O[C@H]5[C@H](O)[C@H]3O)[C@H]3COC(=O)[C@H]23)OCO4)cc(OC)c1O [etoposide]")
"fail to induce ecto-CRT"
>>> reported_result("CO[C@@]12[C@H](COC(N)=O)C3=C(C(=O)C(C)=C(N)C3=O)N1C[C@@H]1N[C@@H]12 [mitomycin C]")
"fail to induce ecto-CRT"
>>> reported_result("COC[C@@H]([C@H](O)[C@H](O)C(=O)NCC[C@H](C)c1nc(/C=C/C[C@@H]2O[C@]3(C[C@@H](O)[C@@H]2C)O[C@H]([C@H](C[C@H](O)[C@H](C)[C@H](O)[C@H](C)/C=C(C)/C(C)=C/C=C/C(C)=C\\C#N)OC)[C@H](OP(=O)(O)O)C3(C)C)co1)N(C)C [calyculin A]")
"efficiently induced"
>>> reported_result("CO[C@H]([C@H](O)CC(=O)[C@@H](C)[C@@H](O)CC[C@@H](C)[C@@H]1O[C@]2(CC[C@@H](C)[C@H](CC[C@H](C)C(C)=O)O2)CC[C@@H]1C)[C@H](OC(=O)C[C@@H](O)C1=C(C)C(=O)OC1=O)C(C)C [tautomycin]")
"efficiently induced"
